These entries and their values trace back to paper PMC5681660.

biological target: human NTCP (Homo sapiens, UniProt Q14973); experiment: Screening taurocholate uptake assay (96-well, [14C]taurocholate, 10 µM drug); conditions: screening taurocholate uptake, 10 µM drug
Where a name gives a salt, the structure may show the parent alone.
Each entry below carries its recorded B-score functional assay.

>  <compound>
CN(Cc1cc(Br)cc(Br)c1N)C1CCCCC1 [Bromhexine hydrochloride]

>  <B-score functional assay>
-0.767

$$$$
>  <compound>
CCCCCCCCCCCCCCCC[N+](C)(C)CCN(Cc1ccc(OC)cc1)c1ncccn1 [Thonzonium bromide]

>  <B-score functional assay>
-2.235

$$$$
>  <compound>
CN1CCCN=C1/C=C/c1cccs1.O=C(O)C(O)C(O)C(=O)O [Pyrantel tartrate]

>  <B-score functional assay>
-0.111

$$$$
>  <compound>
C[C@]12CC[C@@H]3c4ccc(O)cc4CC[C@H]3[C@@H]1C[C@@H](O)[C@@H]2O

>  <B-score functional assay>
0.325

$$$$
>  <compound>
C[C@]12C/C(=C/O)C(=O)C[C@@H]1CC[C@@H]1[C@@H]2CC[C@@]2(C)[C@H]1CC[C@]2(C)O

>  <B-score functional assay>
-1.45

$$$$
>  <compound>
C=CC[C@]1(O)CC[C@H]2[C@@H]3CCC4=CC(=O)CCC4=C3C=C[C@@]21C

>  <B-score functional assay>
0.332

$$$$
>  <compound>
CC(=O)c1ccc2c(c1)N(CCCN1CCC(CCO)CC1)c1ccccc1S2

>  <B-score functional assay>
-0.935

$$$$
>  <compound>
CCN(CC)C(=S)SSC(=S)N(CC)CC

>  <B-score functional assay>
-4.037

$$$$

----------
Target: human NTCP (Homo sapiens, UniProt Q14973)
Sequence (Q14973 1-349): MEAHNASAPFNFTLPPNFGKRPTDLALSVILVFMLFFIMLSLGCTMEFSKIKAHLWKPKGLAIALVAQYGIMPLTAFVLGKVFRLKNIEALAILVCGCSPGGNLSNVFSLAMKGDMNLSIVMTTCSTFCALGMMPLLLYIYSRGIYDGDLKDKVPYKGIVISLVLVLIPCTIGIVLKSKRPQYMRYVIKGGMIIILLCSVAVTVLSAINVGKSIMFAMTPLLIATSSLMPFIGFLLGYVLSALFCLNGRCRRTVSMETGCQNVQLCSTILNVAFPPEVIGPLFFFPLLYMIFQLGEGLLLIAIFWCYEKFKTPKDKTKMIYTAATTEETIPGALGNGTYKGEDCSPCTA
Assay: Screening taurocholate uptake assay (96-well, [14C]taurocholate, 10 µM drug)
Conditions: ranking score beside the functional and binding assay B-scores of the screen
Structures can show the parent of a compound that is named as a salt.
Listing of entries alongside the reported Ranking score.
readout kind: Ranking score

>  <molecule>
CN1CCC(=C2c3ccccc3C=Cc3ccccc32)CC1 [Cyproheptadine hydrochloride]

>  <target or system>
human NTCP (Homo sapiens, UniProt Q14973)

>  <measured result>
690.33

$$$$
>  <molecule>
Nc1nc(=O)c2c([nH]1)NCC(CNc1ccc(C(=O)N[C@@H](CCC(=O)[O-])C(=O)[O-])cc1)N2C=O.[Ca+2] (stereo partly shown) [Folinic acid calcium salt]

>  <target or system>
human NTCP (Homo sapiens, UniProt Q14973)

>  <measured result>
806.918

$$$$
>  <molecule>
COc1ccc(-c2cc(=S)ss2)cc1

>  <target or system>
human NTCP (Homo sapiens, UniProt Q14973)

>  <measured result>
719.937

$$$$
>  <molecule>
C[C@H]1C[C@H]2[C@@H]3CCC4=CC(=O)C=C[C@]4(C)[C@@]3(F)[C@@H](O)C[C@]2(C)[C@@]1(O)C(=O)CO

>  <target or system>
human NTCP (Homo sapiens, UniProt Q14973)

>  <measured result>
747.052

$$$$
>  <molecule>
CCN[C@H]1CN(CCCOC)S(=O)(=O)c2sc(S(N)(=O)=O)cc21 [Brinzolamide]

>  <target or system>
human NTCP (Homo sapiens, UniProt Q14973)

>  <measured result>
792.227

$$$$
>  <molecule>
CN(C)C(=O)Oc1cccc([N+](C)(C)C)c1 [Neostigmine bromide]

>  <target or system>
human NTCP (Homo sapiens, UniProt Q14973)

>  <measured result>
703.343

$$$$
>  <molecule>
CCOc1ccccc1OC(c1ccccc1)C1CNCCO1.CS(=O)(=O)O (stereo not shown) [Reboxetine mesylate]

>  <target or system>
human NTCP (Homo sapiens, UniProt Q14973)

>  <measured result>
814.737

$$$$
>  <molecule>
c1coc(CNc2ncnc3nc[nH]c23)c1

>  <target or system>
human NTCP (Homo sapiens, UniProt Q14973)

>  <measured result>
696.25

$$$$
>  <molecule>
C[C@]12CCC(=O)C=C1C=C[C@@H]1[C@@H]2CC[C@@]2(C)[C@H]1CC[C@@]2(O)CCC(=O)[O-].[K+] [Canrenoic acid potassium salt]

>  <target or system>
human NTCP (Homo sapiens, UniProt Q14973)

>  <measured result>
751.562

$$$$
>  <molecule>
COc1cc(NS(=O)(=O)c2ccc(N)cc2)ncn1

>  <target or system>
human NTCP (Homo sapiens, UniProt Q14973)

>  <measured result>
680.363

$$$$
>  <molecule>
CCn1cc(C(=O)O)c(=O)c2cc(F)c(N3CCNCC3)cc21

>  <target or system>
human NTCP (Homo sapiens, UniProt Q14973)

>  <measured result>
788.093

$$$$
>  <molecule>
CO/N=C(\C(=O)N[C@@H]1C(=O)N2C(C(=O)O)=C(COC(N)=O)CS[C@H]12)c1ccco1 [Cefuroxime sodium salt]

>  <target or system>
human NTCP (Homo sapiens, UniProt Q14973)

>  <measured result>
660.887

$$$$
>  <molecule>
Cl.NC1CCN(c2nc3c(cc2F)c(=O)c(C(=O)O)cn3-c2ccc(F)cc2F)C1 (stereo not shown) [Tosufloxacin hydrochloride]

>  <target or system>
human NTCP (Homo sapiens, UniProt Q14973)

>  <measured result>
746.768

$$$$
>  <molecule>
CNC(C)(C)Cc1ccccc1.CNC(C)(C)Cc1ccccc1.O=S(=O)(O)O [Mephentermine hemisulfate]

>  <target or system>
human NTCP (Homo sapiens, UniProt Q14973)

>  <measured result>
728.877

$$$$
>  <molecule>
CCCCCCCN(CC)CCCC(O)c1ccc(NS(C)(=O)=O)cc1.CCCCCCCN(CC)CCCC(O)c1ccc(NS(C)(=O)=O)cc1.O=C(O)/C=C/C(=O)O (stereo not shown) [Ibutilide fumarate]

>  <target or system>
human NTCP (Homo sapiens, UniProt Q14973)

>  <measured result>
835.048

$$$$
>  <molecule>
NC(N)=Nc1nc(CSCCC(N)=NS(N)(=O)=O)cs1

>  <target or system>
human NTCP (Homo sapiens, UniProt Q14973)

>  <measured result>
828.628

$$$$

----------
molecular target: UniProt:Q14973; experiment: Screening fluorescent competitive Myrcludex B-FITC binding assay (96-well, 10 µM drug); settings: screen, 10 µM drug, Myrcludex B-FITC binding
Short version: B-score binding assay at least 0.5 is Y, less is N.

>  <compound>
C[C@]12C=CC(=O)C=C1CC[C@@H]1[C@@H]2C(=O)C[C@@]2(C)[C@H]1CC[C@]2(O)C(=O)CO [Prednisone]

>  <qualitative label>
Y

$$$$
>  <compound>
COP(=O)(OC)C(O)C(Cl)(Cl)Cl (centres unmarked) [Trichlorfon]

>  <qualitative label>
N

$$$$
>  <compound>
C[C@]12CCC(=O)C=C1CC[C@@H]1[C@@H]2C(=O)C[C@@]2(C)[C@H]1CC[C@]2(O)C(=O)CO [Cortisone]

>  <qualitative label>
N

$$$$
>  <compound>
Cc1cnc(C(=O)NCCc2ccc(S(=O)(=O)NC(=O)NC3CCCCC3)cc2)cn1 [Glipizide]

>  <qualitative label>
Y

$$$$
>  <compound>
Cn1c([N+](=O)[O-])cnc1COC(N)=O [Ronidazole]

>  <qualitative label>
N

$$$$
>  <compound>
CN1CCN(C2=Nc3ccccc3Oc3ccc(Cl)cc32)CC1 [Loxapine succinate]

>  <qualitative label>
Y

$$$$
>  <compound>
CC(C)(C)NC(=O)[C@H]1CC[C@H]2[C@@H]3CC[C@H]4NC(=O)C=C[C@]4(C)[C@H]3CC[C@]12C [Finasteride]

>  <qualitative label>
Y

$$$$
>  <compound>
CC(C)(C)NCC(O)c1cc(O)cc(O)c1.CC(C)(C)NCC(O)c1cc(O)cc(O)c1.O=S(=O)(O)O (centres unmarked) [Terbutaline hemisulfate]

>  <qualitative label>
N

$$$$

----------
Item-by-item account of B-score functional assay
Molecular target: human NTCP (Homo sapiens)
Sequence (Q14973 1-349): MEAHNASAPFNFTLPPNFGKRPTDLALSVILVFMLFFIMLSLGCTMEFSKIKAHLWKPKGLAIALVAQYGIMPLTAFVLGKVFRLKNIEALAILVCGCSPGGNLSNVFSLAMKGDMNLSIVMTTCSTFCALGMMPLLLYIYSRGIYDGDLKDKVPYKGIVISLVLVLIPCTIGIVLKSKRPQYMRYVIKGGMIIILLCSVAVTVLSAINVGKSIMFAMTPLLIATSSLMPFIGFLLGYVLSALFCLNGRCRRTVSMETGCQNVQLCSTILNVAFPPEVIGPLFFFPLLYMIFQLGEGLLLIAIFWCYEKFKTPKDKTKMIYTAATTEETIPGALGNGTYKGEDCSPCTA
Experiment: Screening taurocholate uptake assay (96-well, [14C]taurocholate, 10 µM drug)
Conditions: Prestwick library screen, taurocholate uptake, 10 µM drug
Counter-ions that a name gives are not always drawn.
readout kind: B-score functional assay

>  <compound>
CCCNCC(O)COc1ccccc1C(=O)CCc1ccccc1 (stereo not shown) [Propafenone hydrochloride]

>  <measured result>
-0.211

$$$$
>  <compound>
CN(Cc1cnc2nc(N)nc(N)c2n1)c1ccc(C(=O)N[C@@H](CCC(=O)O)C(=O)O)cc1 [Methotrexate]

>  <measured result>
0.045

$$$$
>  <compound>
CCCCC(C)(O)C/C=C/[C@H]1[C@H](O)CC(=O)[C@@H]1CCCCCCC(=O)OC (mixture of isomers)

>  <measured result>
-0.231

$$$$
>  <compound>
CC(=O)O[C@H]1C[C@@H]2CC[C@@H]3[C@H](CC[C@@]4(C)[C@H]3C[C@H]([N+]3(C)CCCCC3)[C@@H]4OC(C)=O)[C@@]2(C)C[C@@H]1[N+]1(C)CCCCC1 [Pancuronium bromide]

>  <measured result>
0.614

$$$$
>  <compound>
CC(C)(C(=O)c1cccnc1)c1cccnc1

>  <measured result>
0.78

$$$$
>  <compound>
C#CCN[C@@H]1CCc2ccccc21

>  <measured result>
-0.098

$$$$
>  <compound>
C[C@@H]1CN([C@H]2CC[C@](C#N)(c3ccc(F)cc3)CC2)CC[C@]1(C(=O)O)c1ccccc1 [Levocabastine hydrochloride]

>  <measured result>
-0.031

$$$$
